Known NanoBRET Abs IC50 of a selection of binders
- TEST_SYSTEM: T1, B-cat-Halo (Homo sapiens (Human), UniProt P35222 1-781)
- T1 sequence: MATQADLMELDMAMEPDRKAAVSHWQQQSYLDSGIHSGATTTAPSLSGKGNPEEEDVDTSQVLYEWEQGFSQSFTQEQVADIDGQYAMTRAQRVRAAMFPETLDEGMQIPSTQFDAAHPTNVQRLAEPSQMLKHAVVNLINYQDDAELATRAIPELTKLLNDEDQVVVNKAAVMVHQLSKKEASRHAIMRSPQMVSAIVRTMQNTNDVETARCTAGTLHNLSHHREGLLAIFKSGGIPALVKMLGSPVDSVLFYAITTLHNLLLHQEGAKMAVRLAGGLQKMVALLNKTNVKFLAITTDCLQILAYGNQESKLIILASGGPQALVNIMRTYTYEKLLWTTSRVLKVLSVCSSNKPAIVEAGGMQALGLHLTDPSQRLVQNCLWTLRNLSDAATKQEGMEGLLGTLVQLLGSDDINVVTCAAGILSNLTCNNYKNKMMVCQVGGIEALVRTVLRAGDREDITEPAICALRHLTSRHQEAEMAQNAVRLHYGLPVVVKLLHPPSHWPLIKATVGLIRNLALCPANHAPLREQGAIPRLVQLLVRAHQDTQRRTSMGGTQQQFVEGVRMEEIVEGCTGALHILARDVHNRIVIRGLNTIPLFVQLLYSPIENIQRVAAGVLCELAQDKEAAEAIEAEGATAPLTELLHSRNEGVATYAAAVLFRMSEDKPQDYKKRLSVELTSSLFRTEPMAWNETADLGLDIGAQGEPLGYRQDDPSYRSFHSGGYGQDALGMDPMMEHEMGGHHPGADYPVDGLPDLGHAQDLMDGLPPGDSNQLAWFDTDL
- EXPERIMENTAL_DETAILS: cell-based or functional assay
Starred links: 1 amine or outer side, 2 acyl side, 3 side chain; linkers in the order of their positions; H or OH if unused. Positions of bridges follow the written chain, without caps; N, C: chain ends. Non-standard residues stand in square brackets, D forms with d. Primed or numbered codes have the meaning given here. PyrS2″ = (S)-3-amino-1-((pent-4-en-1-yloxy)carbonyl)pyrrolidine-3-carboxylic acid (stapling residue), C=CCCCOC(=O)N1CC[C@@](N[*:1])(C(=O)[*:2])C1; B5(3) = 2,2-bis(4-pentenyl)glycine (stitching residue), C=CCCCC(CCCC=C)(N[*:1])C(=O)[*:2]; Phe(3-COOH) = N[C@@H](Cc1cccc(C(=O)O)c1)C(=O)O; Phe(2-Cl) = N[C@@H](Cc1ccccc1Cl)C(=O)O; Bta = N[C@@H](Cc1csc2ccccc12)C(=O)O; αAllylPro = C=CC[C@@]1(C(=O)O)CCCN1; tBuAla = CC(C)(C)C[C@H](N)C(=O)O; 3Thi = N[C@@H](Cc1ccsc1)C(=O)O
Write down the numeric answer in µM and omit the unit.

Consider the following illustrative entries.
BINDER	UNITS_SYMBOL	NanoBRET Abs IC50
Ac-[αAllylPro]D[tBuAla][B5(3)]D[Phe(3-COOH)]AAFL[PyrS2″][3Thi][Bta]NAAA-NH2 (staple 1-4, 4-11) [I-2046]	µM	2.9
Ac-[αAllylPro]D[tBuAla][B5(3)]D[Phe(3-COOH)]AAFL[PyrS2″][Phe(2-Cl)][Bta]NAAA-NH2 (staple 1-4, 4-11) [I-2040]	µM	2.8
Ac-[αAllylPro]D[tBuAla][B5(3)]D[Phe(3-COOH)]AAFS[PyrS2″][3Thi][Bta]N-NH2 (staple 1-4, 4-11) [I-2045]	µM	13.5

# next binder below
What value of measured NanoBRET Abs IC50 is listed for Ac-[αAllylPro]D[tBuAla][B5(3)]D[Phe(3-COOH)]AAFF[PyrS2″][Phe(2-Cl)][Bta]N-NH2 (staple 1-4, 4-11) [I-2037] ? 5
